# Assayed System: Concanavalin-A (Canavalia ensiformis) (UniProt P02866)
# Sequence (P02866 whole entry, looked up): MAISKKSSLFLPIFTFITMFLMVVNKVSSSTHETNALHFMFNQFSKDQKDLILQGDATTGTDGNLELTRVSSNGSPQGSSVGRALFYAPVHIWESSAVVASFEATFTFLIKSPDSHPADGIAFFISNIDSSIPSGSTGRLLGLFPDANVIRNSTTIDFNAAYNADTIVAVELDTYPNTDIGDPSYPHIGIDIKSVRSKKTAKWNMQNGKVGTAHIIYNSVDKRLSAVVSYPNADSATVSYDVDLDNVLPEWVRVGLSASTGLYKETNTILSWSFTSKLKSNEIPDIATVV
# Run Description: compounds binding concanavalin A lectin – biochemical, small-molecule microarray, Alexa647 label, 635 nm, artefact control for SMM control protein annotation, primary screen (AID 1127);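 note: z combines 667 nm emission intensity with signal-to-noise across three replicate slides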
# Recorded Conditions: ConA-A647 binding fluorescence, higher = more signal
Observed Property: composite z-score
Answer with the value's number alone.

Prompt: Fill in the recorded composite z-score for this compound, with Concanavalin-A (Canavalia ensiformis) (UniProt P02866) as test system: CN1C(=O)C2C=CC(C(O)c3cccc4ccccc34)N(NC(=O)OC(C)(C)C)C2C1=O (centres undefined)
Completion: 1.17

Prompt: Please state recorded composite z-score (tested on Concanavalin-A (Canavalia ensiformis) (UniProt P02866)) of `COc1ccc([Si](C)(C)[C@@H]2[C@@H](CCO)O[C@]3(C(=O)N(Cc4cccc(N5C(=O)COc6ccccc65)c4)c4ccccc43)[C@H]2C)cc1`
Completion: 1.03

Prompt: Query for Concanavalin-A (Canavalia ensiformis) (UniProt P02866): what composite z-score does the record show for `C=CCN1C(=O)[C@@]2(O[C@@H](CCO)[C@H]([Si](C)(C)c3ccc(OC)cc3)[C@H]2C)c2cc(NC(=O)[C@H](C)O)ccc21` ?
Completion: 0.584

Prompt: Lab request: please report composite z-score under test system Concanavalin-A (Canavalia ensiformis) (UniProt P02866) for `CC(C)C[C@@H]1NC(=O)[C@@H]2C[C@H](C(=O)NCc3ccc(F)cc3)[C@H](c3ccc(O)cc3)N2C1=O`
Completion: 1.18

* * *

# Assayed System: NADPH oxidase 5 (Homo sapiens) (UniProt Q96PH1)
# Sequence (Q96PH1 whole entry, looked up): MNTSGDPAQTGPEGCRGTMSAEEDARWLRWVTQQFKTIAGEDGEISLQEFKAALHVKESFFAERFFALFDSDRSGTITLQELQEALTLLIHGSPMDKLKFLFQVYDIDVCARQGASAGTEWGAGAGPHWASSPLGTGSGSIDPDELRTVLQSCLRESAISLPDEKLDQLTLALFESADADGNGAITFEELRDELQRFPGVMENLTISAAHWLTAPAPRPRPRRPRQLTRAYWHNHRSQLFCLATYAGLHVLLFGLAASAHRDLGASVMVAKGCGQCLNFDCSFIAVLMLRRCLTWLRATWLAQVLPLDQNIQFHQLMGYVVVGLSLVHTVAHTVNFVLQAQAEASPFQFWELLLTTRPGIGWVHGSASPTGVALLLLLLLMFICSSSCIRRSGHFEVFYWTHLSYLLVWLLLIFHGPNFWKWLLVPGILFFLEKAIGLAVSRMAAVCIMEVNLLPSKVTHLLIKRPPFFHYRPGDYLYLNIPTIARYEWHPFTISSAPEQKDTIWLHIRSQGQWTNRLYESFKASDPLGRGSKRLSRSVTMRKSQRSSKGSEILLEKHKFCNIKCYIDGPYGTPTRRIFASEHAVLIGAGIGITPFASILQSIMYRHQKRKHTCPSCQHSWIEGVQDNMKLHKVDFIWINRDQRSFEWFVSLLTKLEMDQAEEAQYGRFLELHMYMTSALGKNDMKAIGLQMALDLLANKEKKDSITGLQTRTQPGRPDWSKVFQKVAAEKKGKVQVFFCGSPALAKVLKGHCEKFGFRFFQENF
# Run Description: compounds shifting NOX5 Amplex Red fluorescence – cell-based, HEK293-NOX5, NOX inhibitor project, primary screen (AID 1161)
# Recorded Conditions: HEK293-NOX5, ionomycin, 45 min, higher = more signal
Reported z-score values for a set of compounds
Would you mind answering with just the numeric figure?

Compound	z-score
Cc1ccccc1C(O)C1C=CC2C(=O)N(Cc3ccccc3)C(=O)C2N1n1cnnc1 (centres undefined)	0.067

Prompt: Dear colleague, I am looking for the recorded z-score of the following compound: C[C@H]1NC(=O)C([C@@H](C)OCc2ccccc2)NC(=O)[C@@]23C(=O)N[C@@H](Cc4ccccc4)C2[C@H](C)[C@@]2(C)O[C@H]2C3/C=C/CC/C=C/CNC1=O (some centres undefined)
Completion: 0.815

Prompt: Which value of z-score has been reported for `COc1cccc(C)c1NC(=O)O[C@H]1[C@H](OC(=O)Nc2ccccc2)[C@H](OC(=O)Nc2ccccc2)[C@@H](OC)O[C@@H]1CO` in the records?
Completion: -0.89

Prompt: Sample `COC(=O)C(CC#Cc1ccc2c(c1)[C@]1(C(=O)N2)[C@H](c2ccc(O)cc2)N2[C@H](c3ccccc3)[C@H](c3ccccc3)OC(=O)[C@H]2[C@@H]1C(N)=O)C(=O)OC` — what was its z-score?
Completion: -0.453

Prompt: Param item = `C[N+](C)(C)CCCC[C@@H]1NC(=O)[C@H]2C[C@@H](C(=O)NCCCCCCN)[C@@H](c3cccc(OCCO)c3)N2C1=O` ; retrieve measured z-score.
Completion: 1.58

Prompt: Entry under review: `C[N+](C)(C)CCCCNC(=O)[C@H]1C[C@H]2C(=O)NCC(=O)N2[C@H]1c1ccc(O)cc1` . Reported z-score?
Completion: 0.226

Prompt: Would you mind telling me what z-score value was observed for `C=CC[C@]1(C(=O)N(C)C)N=C(c2ccc(OCCCO)cc2)O[C@H]1c1ccccc1` ?
Completion: -4.75

Prompt: Quick one: z-score for `[N-]=[N+]=NCc1ccccc1C[C@]1(C(=O)NCCN2CCOCC2)N=C(c2ccc(OCCCO)cc2)O[C@H]1c1ccccc1` ?
Completion: -1.19

Prompt: # z-score lookup, item `CCOC(=O)C[C@H]1[C@H](OC(=O)c2ccccc2-c2ccccc2)[C@@H](NC(=O)c2ccccc2)c2cc(OCCCO)ccc2N1C(=O)Cc1ccc(OC)cc1`
Completion: 0.327

Prompt: Recorded z-score for `CCCCC=C[C@@H](NC(=O)CCc1ccccc1)c1ccccc1` , please?
Completion: 0.736

Prompt: Requested field: z-score. Item: `COCCOC(=O)N1C(=O)[C@@]2(c3cc(C#CCCO)ccc31)[C@H](C(=O)N1CCc3cc(OC)c(OC)cc3C1)[C@H]1C(=O)O[C@H](c3ccccc3)[C@H](c3ccccc3)N1[C@@H]2c1ccc(OCCO)cc1`
Completion: 1.44

Prompt: What value of measured z-score is listed for `COCCOC(=O)N1C(=O)[C@@]2(c3cc(C#CC4(O)CCCCCC4)ccc31)[C@H](C(=O)NC[C@H](O)c1ccccc1)[C@H]1C(=O)O[C@H](c3ccccc3)[C@H](c3ccccc3)N1[C@@H]2c1ccc(OCCO)cc1` ?
Completion: 0.979

Prompt: What does the data say about its z-score? Entry: `C=C(COC)C(=O)CC[C@H](OC(=O)c1ccccc1-c1ccccc1C(=O)O)c1ccc(OCCO)cc1`
Completion: -1.8

Prompt: Name the recorded z-score for `O=C1c2ccccc2[C@](Cc2ccccc2I)(C(=O)NC2CC2)[C@H](c2ccc(CO)cc2)N1Cc1ccccc1Cl` .
Completion: 0.739

* * *

# Run Description: budding yeast growth modifiers under rapamycin – strain BY4716, OD600, 96 h, primary screen (AID 1091); note: test concentration not given here
# Recorded Conditions: S. cerevisiae BY4716 + rapamycin, called active from +8 up or from −8 down
Activity calls are given as the source filed them.
Bench note: report the call from 1 for active, 0 for inactive

Some entries whose results are on file:
Compound	Label
Cc1ccc(F)cc1S(=O)(=O)N[C@@H]1CCN(C(=O)c2ccc(OC(C)C)cc2)C1	0
CO[C@H]1O[C@H](CO)[C@@H](OC(=O)c2ccc(Br)cc2)[C@@H]2OC(=O)[C@H](Cc3cccc(Br)c3)C/C=C/C[C@@H](Cc3cccc(Br)c3)C(=O)O[C@@H]12	0
Cc1ccc(S[C@]2(C(=O)NCc3ccccc3)CC(=O)N(C3Cc4ccccc4C3)[C@@H]2c2ccc(CO)cc2I)cc1	0
O=C(NCc1ccccc1)[C@]1(Cc2ccccc2)N=C(c2ccc(OCCCO)cc2)O[C@@H]1c1ccccc1	1
CCOC(=O)C[C@H]1[C@H](OC(=O)Cc2ccc3c(c2)OCO3)[C@@H](NC(=O)c2ccccc2)c2cc(OCCCO)ccc2N1C(=O)c1ccccc1	0

Prompt: What outcome does the record of this test show for `O=C1C[C@@](C(=O)O)(c2ccc([N+](=O)[O-])cc2)[C@@H](c2ccc(CO)cc2)N1CC12CC3CC(CC(C3)C1)C2` ?
Completion: 0

Prompt: Please let me know the test result on file for C=CC[C@]1(C(=O)NCC(O)CO)N=C(c2ccc(OCCCO)cc2)O[C@H]1c1ccccc1N=[N+]=[N-] (some centres not stated) .
Completion: 0

* * *

# Run Description: probe aWnt5a binding to arrayed compounds – biochemical, biotinylated probe, 635/667 nm fluorescence, primary screen (AID 1113);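 note: score merges 667 nm fluorescence intensity with signal-to-noise per printed feature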
# Recorded Conditions: small-molecule microarray, higher = more signal
Label Y for high-side composite z-score (at or above -0.1) and N for low-side composite z-score (below it).

Structure As Smiles	Label
COc1ccc(C#Cc2ccc3c(c2)[C@]2(C(=O)N3)[C@H](c3ccc(OCCO)cc3)N3[C@H](c4ccccc4)[C@H](c4ccccc4)OC(=O)[C@H]3[C@@H]2C(=O)N2CCN(c3ncccn3)CC2)cc1	N
COc1ccc(C(=O)Nc2ccc3c(c2)[C@]2(O[C@@H](CCO)[C@H]([Si](C)(C)c4ccc(OC)cc4)[C@H]2C)C(=O)N3Cc2ccccc2)cc1	N

Prompt: Determine whether this compound has composite z-score no lower than -0.1: `O=C1O[C@H](c2ccccc2)[C@H](c2ccccc2)N2[C@H]1[C@@H](C(=O)N1CCCCCCC1)[C@]1(C(=O)Nc3ccc(C#CCCO)cc31)[C@H]2c1ccc(OCCO)cc1`
Completion: Y

Prompt: Confirm if composite z-score reported for the compound `C=C(C(=O)CC[C@H](OC(=O)c1cccnc1)c1ccc(OCCO)cc1)C(C)C` is -0.1 or above.
Completion: Y

Prompt: Can `[N-]=[N+]=NCc1ccccc1[C@H]1OC(c2ccc(OCCCO)cc2)=N[C@@]1(Cc1ccccc1)C(N)=O` be said to have composite z-score at or above -0.1?
Completion: Y

Prompt: # bool: composite z-score of `C[N+](C)(C)CCCCCCNC(=O)[C@@H]1C[C@@H]2C(=O)NCC(=O)N2[C@@H]1c1ccc(O)cc1` >= -0.1
Completion: N

* * *

# Run Description: growth of efflux-deficient E. coli DRC39 – strain DRC39, OD650, 24 h, E. coli filamentation inducers, primary screen (AID 1178);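 note: growth measured as culture turbidity by optical density at 650 nm; test concentration not given here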
# Recorded Conditions: E. coli DRC39 acrAB, higher = more signal, called active from +8 up or from −8 down
Label Fulfilled for high-side z-score (at or above -0.1) and Not fulfilled for low-side z-score (below it).

Answered examples (5):
Compound	Label
CCOC(=O)C1=CC[C@@H](c2ccccc2)N(S(=O)(=O)c2ccc(C)cc2)[C@H]1C=C(C)C	Not fulfilled
CCCCC(CC)C(O)C1C=CC2C(=O)NC(=O)C2N1Nc1ccccn1 (stereo not drawn)	Not fulfilled
COc1ccc(C(=O)Nc2ccc(CN3C(=O)[C@]4(O[C@H](CCn5cc([C@H](O)c6ccccc6)nn5)[C@@H]([Si](C)(C)c5ccc(OC)cc5)[C@@H]4C)c4ccccc43)cc2)cc1	Fulfilled
C=CCOC(=O)[C@@H]1[C@H]2C(=O)O[C@H](c3ccccc3)[C@H](c3ccccc3)N2[C@H](c2ccc(OCCOC(=O)[C@@H]3C[C@@H]4C(=O)N[C@@H](CCCCNC(C)=O)C(=O)N4[C@@H]3c3ccc(O)cc3)cc2)[C@@]12C(=O)Nc1ccc(I)cc12	Fulfilled
C[N+](C)(C)CCCCCCNC(=O)[C@H]1C[C@H]2C(=O)N3CCC[C@H]3C(=O)N2[C@H]1c1cccc(OCCO)c1	Fulfilled

Prompt: Please check the record `CN(C)CCCCNC(=O)[C@H]1C[C@H]2C(=O)N[C@@H](CCCC[N+](C)(C)C)C(=O)N2[C@H]1c1cccc(OCCO)c1` and state if its z-score is at or above -0.1.
Completion: Not fulfilled

Prompt: Please check the record `CCC[C@@H]1C[C@@]1(CCC)[C@@H](NC(=O)c1cccs1)c1ccc(Cl)cc1` and state if its z-score is at or above -0.1.
Completion: Fulfilled

Prompt: Please indicate if the recorded z-score for `CCCCC(=C=CC[C@H](O)c1cccc(OCCO)c1)C[C@H](O)COCc1ccccc1` meets or exceeds -0.1.
Completion: Fulfilled

Prompt: Hi team, for CC(C)(C)N1CC=CC23O[C@@H]4C=CCCOC(=O)C4[C@H]2C(=O)N(CCCO)[C@@H]3C1=O (stereo partly drawn) , is the recorded z-score at or above -0.1?
Completion: Not fulfilled

Prompt: Evaluate `C[C@@H]1ON(c2ccccc2)[C@H](c2ccccc2)[C@H]1C(=O)N1C(=O)OC[C@H]1Cc1ccccc1` : z-score at minimum -0.1?
Completion: Fulfilled

Prompt: API: above_or_equal(metric=z-score, cutoff=-0.1) for item `[N-]=[N+]=Nc1ccccc1[C@@H]1OC(c2ccc(OCCCO)cc2)=N[C@]1(CCS(=O)(=O)c1ccccc1)C(=O)NCc1ccccc1`
Completion: Fulfilled

Prompt: Item `COc1ccc(C#Cc2ccc3c(c2)[C@]2(C(=O)N3)[C@H](C(=O)O)[C@H]3C(=O)O[C@H](c4ccccc4)[C@H](c4ccccc4)N3[C@@H]2c2ccc(OCCO)cc2)cc1` with z-score of -0.1 or above?
Completion: Fulfilled

Prompt: Please indicate if the recorded z-score for `COC(=O)[C@@]1(Cc2ccc(OC)cc2)[C@H]2c3cc(C(=O)N4CCCC4)n(CCF)c3C[C@H]2CN1C(=O)c1ccccc1` meets or exceeds -0.1.
Completion: Not fulfilled

Prompt: In plain terms: is recorded z-score at least -0.1 for `CCCN1C(=O)[C@@H]2Cc3c([nH]c4ccccc34)[C@@H](c3cccc(O)c3)N2C1=O` ?
Completion: Fulfilled

Prompt: Is z-score for `COc1ccccc1CN1C(=O)c2ccccc2[C@@]2(Cc3ccccc3N(C3CC3)C2=O)[C@@H]1c1ccc(CO)cc1` at or above -0.1?
Completion: Not fulfilled
